TEST TARGET: CRBN (NanoLuc-CRBN) (Homo sapiens)
Construct: expressed in transfected cells; host or cells: HEK293T (lentiviral transduction, puromycin selection)
Sequence (Q96SW2 whole entry, species assumed): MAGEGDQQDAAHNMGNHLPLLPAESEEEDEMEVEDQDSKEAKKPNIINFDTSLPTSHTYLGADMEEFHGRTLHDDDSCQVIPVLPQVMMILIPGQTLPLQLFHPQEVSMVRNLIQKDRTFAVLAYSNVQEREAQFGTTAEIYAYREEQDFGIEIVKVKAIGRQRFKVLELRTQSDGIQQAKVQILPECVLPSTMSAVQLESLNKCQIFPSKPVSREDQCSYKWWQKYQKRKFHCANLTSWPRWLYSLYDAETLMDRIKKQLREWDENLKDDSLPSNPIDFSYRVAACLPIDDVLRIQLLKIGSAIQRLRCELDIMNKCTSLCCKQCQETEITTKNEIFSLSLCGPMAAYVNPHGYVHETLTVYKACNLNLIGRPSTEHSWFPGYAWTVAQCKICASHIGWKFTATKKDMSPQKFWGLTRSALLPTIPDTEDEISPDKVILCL
MEASUREMENT PROTOCOL: Cellular CRBN NanoBRET engagement assay
Format: cell-based
COND: HEK293T cells stably expressing NanoLuc-CRBN; tracer 250 nM; two hours incubation
Decision: IC50 beneath 40 nM gives fulfilled; IC50 meeting or exceeding 40 nM gives not fulfilled.

> print(dat)
                                   molecule  qualitative.label
1  O=C1CCC(N2C(=O)c3ccc(C4(O)CCN(Cc5ccccc5C(F)(F)F)CC4)cc3C2=O)C(=O)N1 (stereo not drawn)      not fulfilled
2  O=C1CCC(N2C(=O)c3ccc(C4(O)CCN(Cc5ccc6cc(-c7ccccc7)nn6c5)CC4)cc3C2=O)C(=O)N1 (stereo not drawn)          fulfilled
3  N#Cc1ccc(Oc2cccc(CN3CCC(O)(c4ccc5c(c4)C(=O)N(C4CCC(=O)NC4=O)C5=O)CC3)c2)cc1 (stereo not drawn)          fulfilled
4  O=C1CCC(N2C(=O)c3ccc(C4(O)CCN(Cc5cccc(Oc6ccc(F)cc6)c5)CC4)cc3C2=O)C(=O)N1 (stereo not drawn)          fulfilled

Determine whether this molecule shows IC50 lower than 40 nM (ties excluded): O=C1CCC(N2C(=O)c3ccc(C4(O)CCN(Cc5ccc6ccccc6c5)CC4)cc3C2=O)C(=O)N1 (stereo not drawn)
not fulfilled

Would you kindly verify if IC50 of O=C1CCC(N2C(=O)c3ccc(C4CCN(Cc5cccc(Nc6ccccn6)n5)CC4)cc3C2=O)C(=O)N1 (stereo not drawn) is strictly less than 40 nM?
not fulfilled

Please determine if O=C1CCC(N2C(=O)c3ccc(C4(O)CCN(Cc5ccc(F)c(Oc6ccccc6)c5)CC4)cc3C2=O)C(=O)N1 (stereo not drawn) is below 40 nM in terms of IC50.
not fulfilled

Dear reviewer, please state whether O=C1CCC(N2C(=O)c3ccc(C4(O)CCN(Cc5cccc(Nc6ccccn6)n5)CC4)cc3C2=O)C(=O)N1 (stereo not drawn) has IC50 strictly beneath 40 nM.
not fulfilled

Quick check: does O=C1CCC(N2C(=O)c3ccc(C4(O)CCN(Cc5cccc(Oc6ccccc6)c5)CC4)cc3C2=O)C(=O)N1 (stereo not drawn) have IC50 under 40 nM?
fulfilled

====

Consider the following compounds and their measured IC50 readings.
TEST TARGET: CRBN (NanoLuc-CRBN) (Homo sapiens)
Construct: expressed in transfected cells; host or cells: HEK293T (lentiviral transduction, puromycin selection)
MEASUREMENT PROTOCOL: Cellular CRBN NanoBRET engagement assay
Format: cell-based
COND: HEK293T cells stably expressing NanoLuc-CRBN; tracer 250 nM; two hours incubation
In your response, the unit should come after the numeric value.

Please review the following examples before continuing.
> print(dat)
                                   compound  observation.type  observed.result
1  COc1ccc(Oc2cccc(CN3CCC(O)(c4ccc5c(c4)C(=O)N(C4CCC(=O)NC4=O)C5=O)CC3)c2)cc1 (stereo not drawn)              IC50            41 nM
2  O=C1CCC(N2C(=O)c3ccc(C4(O)CCN(CC5CCOCC5)CC4)cc3C2=O)C(=O)N1 (stereo not drawn)              IC50            56 nM
3  O=C1CCC(N2C(=O)c3ccc(C4(O)CCN(Cc5ccccc5)CC4)cc3C2=O)C(=O)N1 (stereo not drawn)              IC50            65 nM
4  O=C1CCC(N2C(=O)c3ccc(C4=CCN(Cc5ccccc5)CC4)cc3C2=O)C(=O)N1 (stereo not drawn)              IC50          1700 nM
5  O=C1CCC(N2C(=O)c3ccc(C4(O)CCN(Cc5cccc(Oc6ccc(Cl)cc6)c5)CC4)cc3C2=O)C(=O)N1 (stereo not drawn)              IC50            54 nM

Then this compound:
# query: IC50 | item O=C1CCC(N2C(=O)c3ccc(C4(O)CCN(Cc5cccc6ccccc56)CC4)cc3C2=O)C(=O)N1 (stereo not drawn) | system: CRBN (NanoLuc-CRBN) (Homo sapiens)
15 nM
